# Assay overview: Plasma pharmacokinetics of GSK3532795, part A
# Type: in vivo
# Study conditions: human, oral, 5 mg
Assay metric: half-life (min)

{"Compound": "C=C(C)[C@@H]1CC[C@]2(NCCN3CCS(=O)(=O)CC3)CC[C@]3(C)[C@H](CC[C@@H]4[C@@]5(C)CC=C(c6ccc(C(=O)O)cc6)C(C)(C)[C@@H]5CC[C@]43C)[C@@H]12 [GSK3532795]", "Test result": 1960}

###

# Assay overview: Plasma pharmacokinetics of GSK3532795, part A
# Type: in vivo
# Study conditions: human, oral, 120 mg

{"Molecule": "C=C(C)[C@@H]1CC[C@]2(NCCN3CCS(=O)(=O)CC3)CC[C@]3(C)[C@H](CC[C@@H]4[C@@]5(C)CC=C(c6ccc(C(=O)O)cc6)C(C)(C)[C@@H]5CC[C@]43C)[C@@H]12 [GSK3532795]", "Cmax, ng/mL": 2810}

// provenance: paper PMC5848258
